test: Pharmacokinetics (PK parameters from lymphopenia, mouse); format: in vivo; conditions: female, C57BL/6, plasma, po, 30 mg/kg, PK-PD (30 mpk)
experimental readout: half-life (min)
Give bare numbers, in min.

For the compound `Cc1ccccc1-c1ccc(-c2nc(-c3ccc(CN(C)CC(=O)O)c(F)c3)no2)cc1C(F)(F)F` , report half-life.
450

---

molecular target: S1P1 (Homo sapiens, UniProt P21453); experiment: Receptor binding assay, [33P]sphingosine 1-phosphate competition (SPA), S1P1; settings: 384 well-plate; read-out: S1P1 binding Ki (M) (384 well-plate)
Sequence (P21453 whole entry, species assumed): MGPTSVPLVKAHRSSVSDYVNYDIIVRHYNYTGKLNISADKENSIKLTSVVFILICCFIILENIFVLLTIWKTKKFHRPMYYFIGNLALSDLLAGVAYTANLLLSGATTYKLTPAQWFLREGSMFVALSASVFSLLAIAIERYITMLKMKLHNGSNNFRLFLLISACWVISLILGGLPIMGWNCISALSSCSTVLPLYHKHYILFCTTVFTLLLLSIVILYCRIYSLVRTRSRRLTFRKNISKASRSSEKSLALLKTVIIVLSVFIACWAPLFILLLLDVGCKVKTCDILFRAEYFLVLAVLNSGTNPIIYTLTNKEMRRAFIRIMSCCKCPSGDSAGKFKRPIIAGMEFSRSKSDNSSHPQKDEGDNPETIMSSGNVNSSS
Could you please report measured log10 Ki for the items listed next?
A difference of one corresponds to tenfold Ki; all values are log10 with Ki in M.

Reference set (3 entries):
COCc1cc(-c2nc(-c3cccc(CN(C)CC(=O)O)c3F)no2)ccc1-c1ccccc1C(F)(F)F [Example 114]    -8.72
Cc1ccccc1-c1ccc(-c2nc(-c3ccc(CN(C)CC(=O)O)c(Cl)c3)no2)cc1C(F)(F)F [Example 129]    -8.27
Cc1cc(-c2nc(-c3ccc(CN(C)CC(=O)O)cc3)no2)ccc1-c1ccccc1C(F)(F)F [Example 100]    -8.46

Provide the reported log10 Ki of each entry below, same order.
1. Cc1ccccc1-c1ccc(-c2nc(-c3cc(F)c(CN(C)CC(=O)O)c(F)c3)no2)cc1C(F)(F)F [Example 148]
2. CCN(CCC(=O)O)Cc1cccc(-c2noc(-c3ccc(-c4ccccc4C)c(C(F)(F)F)c3)n2)c1 [Example 69]
3. Cc1ccccc1-c1ccc(-c2nc(-c3ccc(CN(C)CC(=O)O)cc3)no2)cc1C(F)(F)F [Example 81]
4. COCc1cc(-c2nc(-c3ccc(CN(C)CC(=O)O)c(F)c3)no2)ccc1-c1ccccc1C(F)(F)F [Example 95]
5. COCCN(CC(=O)O)Cc1ccc(-c2noc(-c3ccc(-c4ccccc4C)c(C(F)(F)F)c3)n2)cc1 [Example 138]
6. Cc1cc(CN(C)CC(=O)O)ccc1-c1noc(-c2ccc(-c3ccccc3C)c(C(F)(F)F)c2)n1 [Example 103]
7. COCc1cc(-c2nc(-c3ccc(CN(C)CC(=O)O)cc3)no2)ccc1-c1ccccc1C(F)(F)F [Example 97]

[-8.62, -8.83, -8.56, -8.44, -8.29, -8.84, -8.68]

Provide the reported log10 Ki of each entry below, same order.
1. Cc1ccccc1-c1ccc(-c2nc(-c3ccc(CN(C)CCCC(=O)O)cc3)no2)cc1C(F)(F)F [Example 116]
2. Cc1ccccc1-c1ccc(-c2nc(-c3ccc(Cl)c(CN(C)CC(=O)O)c3)no2)cc1C(F)(F)F [Example 111]
3. Cc1ccccc1-c1ccc(-c2nc(-c3cccc(CN(C)CC(=O)O)c3F)no2)cc1C(F)(F)F [Example 112]
4. COCc1cc(-c2nc(-c3cccc(CN(C)CC(=O)O)c3)no2)ccc1-c1ccccc1C(F)(F)F [Example 49]

-8.88
-8.43
-9.31
-8.63

For the compound Cc1ccccc1-c1ccc(-c2nc(-c3ccc(CN(C)CC(=O)O)c(F)c3)no2)cc1C(F)(F)F [Example 70] , report log10 Ki.
-8.66

---

target: S1P3 (Homo sapiens); assay: Receptor binding assay, [33P]sphingosine 1-phosphate competition (SPA), S1P3; details: 384 well-plate; read-out: S1P3 binding Ki (M) (384 well-plate)
Sequence (Q99500 whole entry, species assumed): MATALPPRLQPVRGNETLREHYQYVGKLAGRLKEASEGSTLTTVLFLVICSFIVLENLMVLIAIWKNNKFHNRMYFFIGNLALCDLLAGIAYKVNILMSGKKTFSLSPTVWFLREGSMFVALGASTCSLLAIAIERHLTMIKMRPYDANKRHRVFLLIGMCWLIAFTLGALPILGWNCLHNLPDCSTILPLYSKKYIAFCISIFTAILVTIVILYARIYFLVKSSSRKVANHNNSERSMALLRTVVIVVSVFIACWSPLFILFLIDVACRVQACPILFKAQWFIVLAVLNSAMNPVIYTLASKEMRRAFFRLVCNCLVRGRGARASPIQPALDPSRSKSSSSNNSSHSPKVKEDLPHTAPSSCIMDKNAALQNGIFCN
experimental readout: log10(Ki) (log10 of the value in M)
A difference of one corresponds to tenfold Ki; all values are log10 with Ki in M.

Cc1ccccc1-c1ccc(-c2nc(-c3ccc(CN(C)CC(=O)O)c(F)c3F)no2)cc1C(F)(F)F [Example 150]    -6.53

Provide the reported log10(Ki) of each entry below, same order.
1. Cc1cc(-c2nc(-c3ccc(CN(C)CC(=O)O)c(F)c3F)no2)ccc1-c1ccccc1C(F)(F)F [Example 152]
2. Cc1ccccc1-c1ccc(-c2nc(-c3cc(F)c(CN(C)CC(=O)O)c(F)c3)no2)cc1C(F)(F)F [Example 148]
3. Cc1cc(-c2nc(-c3ccc(CN(C)CC(=O)O)cc3)no2)ccc1-c1ccccc1C(F)(F)F [Example 100]

1. -4.90
2. -6.08
3. -5.01
